- measured.target: STAT3 (Homo sapiens)
- Sequence (P40763 whole entry): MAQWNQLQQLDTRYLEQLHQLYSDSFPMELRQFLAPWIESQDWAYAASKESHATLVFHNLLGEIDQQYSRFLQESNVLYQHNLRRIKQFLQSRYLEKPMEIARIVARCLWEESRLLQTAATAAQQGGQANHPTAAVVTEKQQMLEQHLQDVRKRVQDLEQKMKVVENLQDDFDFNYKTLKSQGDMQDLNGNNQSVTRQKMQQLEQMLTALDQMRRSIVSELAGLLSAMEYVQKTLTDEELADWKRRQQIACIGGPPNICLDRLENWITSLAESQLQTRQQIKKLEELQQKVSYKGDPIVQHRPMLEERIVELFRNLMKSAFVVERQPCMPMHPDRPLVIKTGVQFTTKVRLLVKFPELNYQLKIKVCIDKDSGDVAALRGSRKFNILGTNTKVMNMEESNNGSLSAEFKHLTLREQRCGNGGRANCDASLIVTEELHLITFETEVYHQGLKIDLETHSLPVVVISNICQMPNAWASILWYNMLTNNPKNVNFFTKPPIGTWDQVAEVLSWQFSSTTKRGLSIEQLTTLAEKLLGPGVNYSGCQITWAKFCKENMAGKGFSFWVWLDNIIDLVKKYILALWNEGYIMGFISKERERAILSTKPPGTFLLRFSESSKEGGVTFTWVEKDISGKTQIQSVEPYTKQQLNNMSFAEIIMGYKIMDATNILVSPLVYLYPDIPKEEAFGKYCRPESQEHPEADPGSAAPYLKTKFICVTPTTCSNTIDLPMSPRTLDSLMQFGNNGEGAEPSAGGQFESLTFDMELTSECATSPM
- protocol.text: Quantitation of STAT3 degradation in A549 cells by Western blot
- Format: cell-based
- Design: expressed in transfected cells; host or cells: A549
- setup.conditions: 24 hours, tested up to 30 μM or 10 μM, read-out: A549 DC50
Provide the recorded DC50 for the entries that follow.

Look over these answered cases.
Tell us which DC50 value is on record for Cc1ncsc1-c1ccc(CNC(=O)[C@@H]2C[C@@H](O)CN2C(=O)[C@@H](NC(=O)CCCCc2ccc(CO[C@H](C)[C@H](CCC(N)=O)NC(=O)[C@@H]3Cc4cccc5c4N3C(=O)[C@@H](NC(=O)c3cc4cc(CP(=O)(O)O)ccc4[nH]3)CC5)cc2)C(C)(C)C)cc1
> 30 µM

Tell us which DC50 value is on record for C/C(=C\C(=O)N[C@H]1CCc2cccc3c2N(C1=O)[C@H](C(=O)N[C@@H](CCC(N)=O)[C@@H](C)OCc1ccc(CCCOCCOCCOCCOCCOc2cc(-c4scnc4C)ccc2CNC(=O)[C@@H]2C[C@@H](O)CN2C(=O)[C@@H](NC(=O)C2(F)CC2)C(C)(C)C)cc1)C3)c1ccc(C(F)(F)P(=O)(OCOC(=O)C(C)(C)C)OCOC(=O)C(C)(C)C)cc1
> 30 µM

Tell us which DC50 value is on record for C/C(=C\C(=O)N[C@H]1CCc2cccc3c2N(C1=O)[C@H](C(=O)N[C@@H](CCC(N)=O)[C@@H](C)OCc1ccc(CCOCC(=O)N[C@H](C(=O)N2C[C@H](O)C[C@H]2C(=O)NCc2ccc(-c4scnc4C)cc2)C(C)(C)C)cc1)C3)c1ccc(C(F)(F)P(=O)(OCOC(=O)C(C)(C)C)OCOC(=O)C(C)(C)C)cc1
< 30 µM

More entries:
Tell us which DC50 value is on record for C/C(=C\C(=O)N[C@H]1CCc2cccc3c2N(C1=O)[C@H](C(=O)N[C@@H](CCC(N)=O)[C@@H](C)OCc1ccc(CCCCC(=O)N[C@H](C(=O)N2C[C@H](O)C[C@H]2C(=O)NCc2ccc(-c4scnc4C)cc2)C(C)(C)C)cc1)C3)c1ccc(CP(=O)(O)O)cc1
> 30 µM
